# PROTOCOL_NOTES: In-vivo PK of GGA oral formulations in rat
# CONDITION_SET: plasma, GGA in 3% Hydroxypropyl Cellulose (Mn=10,262) aqueous suspension, read-out: t½ (converted)

INPUT_SMILES	half-life (h)
CC(=O)CC/C=C(\C)CC/C=C(\C)CC/C=C(\C)CCC=C(C)C	18.7

----------
# PROTOCOL_NOTES: In-vivo PK of GGA oral formulations in rat
# CONDITION_SET: plasma, GGA in 3% Hydroxypropyl Cellulose (Mn=10,262) aqueous suspension, read-out: oral bioavailability (% F)
MEASUREMENT_KIND: bioavailability (%)

INPUT_SMILES	MEASUREMENT_KIND	VALUE_REPORTED
CC(=O)CC/C=C(\C)CC/C=C(\C)CC/C=C(\C)CCC=C(C)C	bioavailability	35

----------
# PROTOCOL_NOTES: In-vivo PK of GGA oral formulations in rat
# CONDITION_SET: plasma, GGA in 3% Hydroxypropyl Cellulose (Mn=100,000) aqueous suspension

INPUT_SMILES	Tmax
CC(=O)CC/C=C(\C)CC/C=C(\C)CC/C=C(\C)CCC=C(C)C	8.66 h

----------
# PROTOCOL_NOTES: In-vivo PK of GGA oral formulations in rat
# CONDITION_SET: plasma, GGA in 5% Gum Arabic aqueous suspension
MEASUREMENT_KIND: Tmax (h)

INPUT_SMILES	UNIT_OF_MEASURE	VALUE_REPORTED
CC(=O)CC/C=C(\C)CC/C=C(\C)CC/C=C(\C)CCC=C(C)C	h	7.33

----------
# PROTOCOL_NOTES: In-vivo PK of GGA oral formulations in rat
# CONDITION_SET: plasma, GGA in 5% Gum Arabic+3% Hydroxypropyl Cellulose (Mn=10,262) aqueous suspension, read-out: t½ (converted)
# Method: PK Parameters were calculated from noncompartmental analysis (NCA) model using WinNonlin software and the linear/log trapezoidal method. Parameters that requires 1z: Terminal Half-Life (t1/2)=ln(2)/lz. Calculated using Lambda_z method to find best fit. If necessary, the concentration-time points were manually selected for use in the calculation. Bolded-italicized concentrations indicate points used for calculation.
MEASUREMENT_KIND: half-life (h)

INPUT_SMILES	UNIT_OF_MEASURE	VALUE_REPORTED
CC(=O)CC/C=C(\C)CC/C=C(\C)CC/C=C(\C)CCC=C(C)C	h	6.73

----------
# PROTOCOL_NOTES: In-vivo PK of GGA oral formulations in rat
# CONDITION_SET: plasma, GGA in 3% Hydroxypropyl Cellulose (Mn=100,000) aqueous suspension, read-out: oral bioavailability (% F)

COMPOUND	bioavailability
CC(=O)CC/C=C(\C)CC/C=C(\C)CC/C=C(\C)CCC=C(C)C [GGA, geranylgeranyl acetone]	41.8%

----------
# Tested on: Sprague Dawley rats
# PROTOCOL_NOTES: Kainic acid stereotactic hippocampus injection model, fraction of cells damaged
# Assay type: in vivo, rat
# CONDITION_SET: 2 mg/kg oral; KA at 72 hours
# Mean of Hippocampus CA3 Neurons Damaged per record follows

MOLECULE	Mean of Hippocampus CA3 Neurons Damaged
CC(C)=CCC/C(C)=C/CC/C(C)=C/CC/C(C)=C/C1=N[C@@H](C(C)C)CO1 [Compound 27a]	11%
CCOC(=O)CNC(=S)OC/C=C(\C)CC/C=C(\C)CC/C=C(\C)CCC=C(C)C [Compound 10d]	14%
CC(C)=CCC/C(C)=C/CC/C(C)=C/CC/C(C)=C/c1cnco1 [Compound 14]	13%
COCCNC(=S)OC/C=C(\C)CC/C=C(\C)CC/C=C(\C)CCC=C(C)C [Compound 10i]	22%
